# Tested on: native aspartic endoproteinase (TcAP2), size exclusion purified pool #57-64
# Experiment: Inhibitor sensitivity of the native purified aspartic endoproteinase (bovine hemoglobin hydrolysis, OPA read-out)
# Assay type: biochemical, Theobroma cacao
# Measurement Context: pH 3, 10 mg/ml bovine hemoglobin; pepstatin A 0.002 mM, 1,10 phenanthroline 2.0 mM, E-64 0.01 mM, DCI 0.1 mM; two replicates
Square brackets hold non-standard residues; d marks the D form. Peptide text beside a SMILES is read from it. * marks the point of attachment. Sta = CC(C)C[C@H](N)[C@@H](O)CC(=O)O; Isovaleryl = CC(C)CC(=O)*
Readout Label: Remaining Activity % (%)

[I] CC(C)CC(=O)N[C@H](C(=O)N[C@H](C(=O)N[C@@H](CC(C)C)[C@@H](O)CC(=O)N[C@@H](C)C(=O)N[C@@H](CC(C)C)[C@@H](O)CC(=O)O)C(C)C)C(C)C [Pepstatin A] (Isovaleryl-VV[Sta]A[Sta]-OH)
[II] CC(C)C[C@H](NC(=O)[C@H]1O[C@@H]1C(=O)O)C(=O)NCCCCN=C(N)N
Which numeric Remaining Activity % is bigger, that of I or that of II ? Select an item and report its label.
II
(II: 88%, I: 0%)

* * *

# Test system: recombinant TcAP2
# Experiment: Effect of inhibitors on hydrolysis of bovine haemoglobin by recombinant TcAP2
# Type: biochemical, Theobroma cacao
# Measurement Context: pH 3; 2 μM pepstatin, 2 mM 1.10 phenanthroline, 100 μM DCI, 10 μM E64
Readout Label: Effect on endoprotease activity of recombinant TcAP2

O=c1oc(Cl)c(Cl)c2ccccc12 [DCI, dichloroisocoumarin]	no effect
CC(C)C[C@H](NC(=O)[C@H]1O[C@@H]1C(=O)O)C(=O)NCCCCN=C(N)N [E-64]	no effect
c1cnc2c(c1)ccc1cccnc12 [1,10 Phenanthroline, 1,10 phenanthroline]	no effect
